test system: Escherichia coli TOP10; assay: shrunken log2 fold change of peptide-encoding DNA abundance (4.5 h post-induction vs induction); higher = less antimicrobial activity (less host growth inhibition); conditions: time post-induction: 4.5 h; library: site-saturation at positions 5, 18, 19, 20;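 further: peptides expressed intracellularly from a pBAD plasmid library in pooled LB shake-flask culture, induced with 0.3% L-arabinose, DNA abundance read by NGS, three biological replicates, DESeq2 with apeglm shrinkage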
READOUT NAME: shrunken log2 fold change
Just the number, please.

> print(dat)
           sequence.record  numeric.value
1  RRIRQRPPRLPRPRPRPHCFPRP         -0.111
2  RRIRERPPRLPRPRPRPKHCPRP         0.0411
3  RRIRYRPPRLPRPRPRPKGGPRP         0.0198
4  RRIRVRPPRLPRPRPRPFNTPRP           2.64
5  RRIRERPPRLPRPRPRPTIAPRP          -0.25

Ask: shrunken log2 fold change for `RRIRERPPRLPRPRPRPNGCPRP` ?
Result: 0.00429

Ask: Repeat with `RRIRQRPPRLPRPRPRPHLIPRP`
Result: -0.0982

Ask: Repeat with `RRIRERPPRLPRPRPRPRCHPRP`
Result: -0.464
